system: DU-145; test: NCI tumour cell line growth inhibition, 48 h
Activity calls are given as the source filed them. Cut-off read from the data, not from the text of the source: active = GI50 up to about 1.1 µM and inactive = higher.
property-measured: GI50

>>> endpoint_result("CC(C)=NNc1ncnc2[nH]cnc12")
"3.85 µM (inactive)"
>>> endpoint_result("CC(C)C(=O)NCC[C@@H](CNC(=O)OC(C)(C)C)NC(=O)OC(C)(C)C")
"> 100 µM (inactive)"
>>> endpoint_result("c1ccc2c(-c3cnc(-c4c[nH]c5ccccc45)cn3)c[nH]c2c1")
"> 100 µM (inactive)"
>>> endpoint_result("CC(=O)Nc1ccc(/C=C/[N+](=O)[O-])cc1")
"5.11 µM (inactive)"
>>> endpoint_result("O=C1Nc2ccc(Br)cc2/C1=N/S(=O)(=O)O")
"57.1 µM (inactive)"

Next:
## Task Query the reported GI50 for DU-145; item: O=CN/C=C/c1ccccc1
## Result > 100 µM (inactive)

====

system: CCRF-CEM; experiment: NCI tumour cell line growth inhibition, 48 h
Calls of active or inactive are those of the source. Cut-off read from the data, not from the text of the source: active = GI50 up to about 1.1 µM and inactive = higher.
The compounds listed here are annotated with their GI50.

>>> endpoint_result("CC(=O)O[C@H]1CC2C(C3CC[C@H](C(C)CCC(N)=O)[C@]31C)[C@H](OC(C)=O)C[C@@H]1CC3(CC[C@]21C)OOC1(CCC(C)CC1)OO3 (some centres undefined)")
"1.52 µM (inactive)"
>>> endpoint_result("C=C1C(=O)OC2C[C@H](C)C3CC(=O)C(C)=C3CC12 (some centres undefined)")
"3.44 µM (inactive)"

## Task If you can, please state the reported GI50 value of OCC12C3C4C1C1C2C3C41CO (centres undefined) .
## Result > 100 µM (inactive)

## Task Again, but for CCCCCCC(=O)C/C(=N/NC(N)=S)C(=O)NC1C2CC3CC(C2)CC1C3 (centres undefined)
## Result > 100 µM (inactive)

## Task Also need NNc1nc2ccccc2s1 , thanks.
## Result 35.1 µM (inactive)

## Task And the next one, Cc1cc2c(cc1C)N1C(Cl)=C3CCCCC3=C(C#N)C1N2 (centres undefined) ?
## Result 2.48 µM (inactive)

## Task Also CC(=O)O[C@@H]1C[C@@]2(C)[C@@H]3CC=C4[C@@H](C[C@H](O)C(=O)C4(C)C)[C@]3(C)C(=O)C[C@]2(C)[C@H]1[C@@](C)(O)C(=O)/C=C/C(C)(C)OC(C)=O ?
## Result 1.61 µM (inactive)

## Task Then this compound: CCOC(=O)NC(=O)c1cn(CCOC(=O)NCCCCCCNC(=O)OCCn2cc(C(=O)NC(=O)OCC)c(=O)[nH]c2=O)c(=O)[nH]c1=O
## Result > 100 µM (inactive)

## Task Next entry: COC12C=C(C)C(CC1)CC2C(=O)O (centres undefined)
## Result > 100 µM (inactive)

====

Measured GI50 values are reported for all entries that follow.
test system: ACHN; assay: NCI tumour cell line growth inhibition, 48 h
Active and inactive are the calls of the source. Cut-off read from the data, not from the text of the source: active = GI50 up to about 1.1 µM and inactive = higher.

The following compounds have reported results that may help.
>>> endpoint_result("CCOC(=O)C1=C(C)N(Cc2ccc(Cl)cc2Cl)C2(O)C=CC(=O)C3C(=O)N(c4ccccc4)C(=O)C132 (stereo not given)")
"1.71 µM (inactive)"
>>> endpoint_result("Cn1cnc([N+](=O)[O-])c1Sc1nc2ccccc2o1")
"11.5 µM (inactive)"
>>> endpoint_result("Cc1c(C(=O)/C=C/C=C/c2ccccc2)[n+]([O-])c2ccccc2[n+]1[O-]")
"25.7 µM (inactive)"

## Task Give the measured GI50 of CC(=O)Nc1c(C)cc(OCC(=O)O)cc1C .
## Result > 100 µM (inactive)

## Task And the next one, CCCCSC(=CC(=O)c1cccc(C(=O)C=C(SCCCC)SCCCC)n1)SCCCC ?
## Result > 100 µM (inactive)

## Task Same for [O-][S+](Cc1ccccc1)c1nc2ccccc2nc1-c1cccs1 (stereo not given)
## Result 13.9 µM (inactive)

## Task Next up: Cc1cccc(NC(Nc2cccc(C)c2)=C(C(Cl)=C(Cl)Cl)[N+](=O)[O-])c1
## Result 15.7 µM (inactive)

## Task // next record CCOC(=O)NC(=O)c1cn(CCOC(=O)NCCCCCCNC(=O)OCCn2cc(C(=O)NC(=O)OCC)c(=O)[nH]c2=O)c(=O)[nH]c1=O
## Result > 100 µM (inactive)

## Task Here is the next compound: CCCC(=O)OC[n+]1ccc(-c2c(COC(=O)NC(C)C)c(COC(=O)NC(C)C)c3n2CCC3)cc1
## Result 15.4 µM (inactive)

## Task Lookup N#Cc1cc(C#N)c(N)nc1N
## Result > 100 µM (inactive)

// provenance: ChEMBL document CHEMBL1201862
